Where do these numbers come from? They come from patent US20190055314A1.

koff overview
TEST_TARGET: T1, CD137-hisFc fusion protein (Sino Biological Cat 10041-H03H) (human, UniProt Q07011 24-186)
T1 construct: Bought; also called recombinant human CD137 (fused with human Fc and His tag); not shown: His tag and human Fc
EXPERIMENT: BLI Octet, Fab;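 also: fab fragments expressed in E. coli, binding to human CD137 measured on Octet RED96, kinetics fitted with a 1:1 Langmuir model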
QUANTITY_MEASURED: koff (s⁻¹)

INSERT INTO assay_data (binder, unit_abbrev, measured_value) VALUES
  ('Fab 4074 (Fab, V domains shown, Fab from E. coli) VH: EVQLVESGGGLVQPGGSLRLSCAASGFSLSTGGVGVSWIRQAPGKGLEWVSSISGSGGTTYYADSVKGRFTISRDNSKNTLYLQLNSLRAEDTAVYYCARDDLYSWYFDVWGQGTLVTVSS VL: DIQLTQSPSSLSASVGDRVTITCRASQGIGSSLAWYQQKPGKAPKLLIYAASSLQSGVPSRFSGSGSGTDFTLTISSLQPEDFATYYCQQGYYTWTFGQGTKVEIKR', 's⁻¹', 0.00094),
  ('Fab 5408 (Fab, V domains shown, Fab from E. coli; also called VH36/VL36) VH: EVQLVESGGGLVQPGGSLRLSCAASGYSITSGYHWSWIRQAPGKGLEWVSSISGYGDTTYYADSVKGRFTISRDNSKNTLYLQLNSLRAEDTAVYYCAREGSDTVLGDWFAYWGQGTLVTVSS VL: DIQLTQSPSSLSASVGDRVTITCQASQDIRTYLAWYQQKPGKAPKLLIYDASNLETGVPSRFSGSGSGTDFTLTISSLQPEDFATYYCQQGYSIWTFGQGTKVEIKR', 's⁻¹', 0.0075),
  ('Fab 5303 (Fab, V domains shown, Fab from E. coli; also called VH14/VL14) VH: EVQLVESGGGLVQPGGSLRLSCAASGFSLSTSGVAVGWIRQAPGKGLEWLALIDWADDKYYSPSLKSRLTISRDNSKNTLYLQLNSLRAEDTAVYYCAREGSDAVLGDWFAYWGQGTLVTVSS VL: DIQLTQSPSSLSASVGDRVTITCRASQDISTFLAWYQQKPGKAPKLLIYDASSLESGVPSRFSGSGSGTDFTLTISSLQPEDFATYYCQQAYSIWTFGQGTKVEIKR', 's⁻¹', 0.0051);
